Below is a list of entries, each paired with its recorded Papp value.
Experiment: Caco-2 permeability assay (CacoReady kit)
Assay type: in vitro ADME
Conditions: human
measured_attribute: Papp

CCNC(=O)C(=O)CC[C@H](NC(=O)c1c[nH]c2ccccc12)C(=O)Nc1cccn(CC(=O)NC2C3CC4CC(C3)CC2C4)c1=O (stereo partly drawn) ... 1 to 10 ×10⁻⁶ cm/s
CCNC(=O)C(=O)CC[C@H](NC(=O)c1ccc2ccoc2c1)C(=O)Nc1cccn(CC(=O)NC2C3CC4CC2CC(C(N)=O)(C4)C3)c1=O (stereo partly drawn) ... < 1 ×10⁻⁶ cm/s
CCNC(=O)C(=O)CC[C@H](NC(=O)c1cn(C2CCC2)cn1)C(=O)Nc1cccn(CC(=O)NC23CC4CC(CC(CC)(C4)C2)C3)c1=O ... < 1 ×10⁻⁶ cm/s
CCNC(=O)C(=O)CC[C@H](NC(=O)[C@H]1COCCN1)C(=O)Nc1cccn(CC(=O)NC2C3CC4CC2CC(C)(C4)C3)c1=O (stereo partly drawn) ... < 1 ×10⁻⁶ cm/s
CCNC(=O)C(=O)CC[C@H](NC(=O)c1cncn1C)C(=O)Nc1cccn(CC(=O)NC23CC4CC(CC(Cl)(C4)C2)C3)c1=O ... < 1 ×10⁻⁶ cm/s
CCNC(=O)C(=O)CC[C@H](NC(=O)c1cncn1C)C(=O)Nc1cccn(CC(=O)NC23CC4CC(CC(O)(C4)C2)C3)c1=O ... < 1 ×10⁻⁶ cm/s
CCNC(=O)C(=O)CC[C@H](NC(=O)c1cc(C#N)cn1C)C(=O)Nc1cccn(CCCC23CC4CC(CC(C4)C2)C3)c1=O ... 1 to 10 ×10⁻⁶ cm/s
CCNC(=O)C(=O)CC[C@H](NC(=O)[C@@H]1CN2CCN1CC2)C(=O)Nc1cccn(CC(=O)NC2C3CC4CC(C3)CC2C4)c1=O (stereo partly drawn) ... < 1 ×10⁻⁶ cm/s
CCNC(=O)C(=O)CC[C@H](NC(=O)c1c[nH]cn1)C(=O)Nc1cccn(CC(=O)NC23CC4CC(CC(C4)C2)C3)c1=O ... < 1 ×10⁻⁶ cm/s
CCNC(=O)C(=O)CC[C@H](NC(=O)c1c[nH]c(C(N)=O)c1)C(=O)Nc1cccn(CC(=O)NC23CC(C2)C3)c1=O ... < 1 ×10⁻⁶ cm/s
CCNC(=O)C(=O)CC[C@H](NC(=O)c1snnc1C=O)C(=O)Nc1cccn(CC(=O)NC2C3CC4CC(C3)CC2C4)c1=O (stereo partly drawn) ... < 1 ×10⁻⁶ cm/s
CCNC(=O)C(=O)CC[C@H](NC(=O)c1cnc(C)n1C)C(=O)Nc1cccn(CC(=O)NC23CC4CC(C)(CC(C)(C4)C2)C3)c1=O ... < 1 ×10⁻⁶ cm/s
